The reported numbers originate from patent US5053333A.

System: Benz-II (protease specific for basic amino acid residue)
Assay remarks: Behavior of Benz-II against various inhibitors (residual activity)
Format: biochemical, Kluyveromyces lactis IFO 1903
Assay setup: inhibitor 10 μM; 25° C. 30 minutes; control lot = 100
Numbered stars: 1 amine (or outer) side, 2 acyl side, 3 side chain; on linkers, the order of the positions; unused ones are H or OH. Square brackets hold non-standard residues; d marks the D form. Peptide text beside a SMILES is read from it. * marks the point of attachment. Sta = CC(C)C[C@H](N)[C@@H](O)CC(=O)O; Isovaleryl = CC(C)CC(=O)*; CO = O=C([*:1])[*:2]
Measured Residual activity of Benz-II by item
Parameter measured: Residual activity of Benz-II

molecule="CC(C)CC(=O)N[C@H](C(=O)N[C@H](C(=O)N[C@@H](CC(C)C)[C@@H](O)CC(=O)N[C@@H](C)C(=O)N[C@@H](CC(C)C)[C@@H](O)CC(=O)O)C(C)C)C(C)C [pepstatin A] (Isovaleryl-VV[Sta]A[Sta]-OH)" experimental_system="Benz-II (protease specific for basic amino acid residue)" parameter_measured="Residual activity of Benz-II" measured_result=96
molecule="CC(C)[C@H](NC(=O)[C@H](CCCNC(=N)N)NC(=O)N[C@@H](Cc1ccccc1)C(=O)O)C(=O)N[C@H](C=O)CCCNC(=N)N [antipain] ({Phe-CO}-Arg-Val-Arg-aldehyde)" experimental_system="Benz-II (protease specific for basic amino acid residue)" parameter_measured="Residual activity of Benz-II" measured_result=88
molecule="CC(C)C[C@H](NP(=O)(O)O[C@@H]1O[C@@H](C)[C@H](O)[C@@H](O)[C@H]1O)C(=O)N[C@@H](Cc1c[nH]c2ccccc12)C(=O)O [phosphoramidon]" experimental_system="Benz-II (protease specific for basic amino acid residue)" parameter_measured="Residual activity of Benz-II" measured_result=93
molecule="CC(C)C[C@H](NC(=O)[C@@H](O)[C@H](N)Cc1ccccc1)C(=O)O [bestatin]" experimental_system="Benz-II (protease specific for basic amino acid residue)" parameter_measured="Residual activity of Benz-II" measured_result=97
molecule="CC(=O)N[C@@H](CC(C)C)C(=O)N[C@@H](CC(C)C)C(=O)N[C@H](C=O)CCCNC(=N)N [leupeptin]" experimental_system="Benz-II (protease specific for basic amino acid residue)" parameter_measured="Residual activity of Benz-II" measured_result=96
molecule="CC(C)C[C@H](NC(=O)[C@H]1O[C@@H]1C(=O)O)C(=O)NCCCCNC(=N)N [E-64]" experimental_system="Benz-II (protease specific for basic amino acid residue)" parameter_measured="Residual activity of Benz-II" measured_result=96

* * *

Test system: Benz-II (protease specific for basic amino acid residue)
Assay remarks: Substrate specificity of Benz-II with fluorescent substrates
Format: biochemical, Kluyveromyces lactis IFO 1903
Assay setup: activity for Boc-Gln-Arg-Arg-MCA being 100; standard conditions
Peptide text beside a SMILES is read from it. * marks the point of attachment. AMC = Cc1cc(=O)oc2cc(N*)ccc12; Boc = CC(C)(C)OC(=O)*; OBn = c1ccc(CO*)cc1
Parameter measured: Relative activity of Benz-II for substrate

compound="Cc1cc(=O)oc2cc(NC(=O)[C@H](CCCNC(=N)N)NC(=O)[C@H](CCCNC(=N)N)NC(=O)[C@H](CC(C)C)NC(=O)OC(C)(C)C)ccc12 [Boc--Leu--Arg--Arg--MCA] (Boc-Leu-Arg-Arg-{AMC})" measured_result=156
compound=Cc1cc(=O)oc2cc(NC(=O)[C@H](CCCNC(=N)N)NC(=O)[C@H](CCCNC(=N)N)NC(=O)CNC(=O)OC(C)(C)C)ccc12 measured_result=19.7
compound="Cc1cc(=O)oc2cc(NC(=O)[C@H](CCCNC(=N)N)NC(=O)[C@@H]3CCCN3C(=O)[C@@H](NC(=O)OC(C)(C)C)C(C)C)ccc12 [Boc--Val--Pro--Arg--MCA] (Boc-Val-Pro-Arg-{AMC})" measured_result=88.0
compound="Cc1cc(=O)oc2cc(NC(=O)[C@H](CCCNC(=N)N)NC(=O)[C@H](CCCCN)NC(=O)[C@H](CC(C)C)NC(=O)OC(C)(C)C)ccc12 [Boc--Leu--Lys--Arg--MCA] (Boc-Leu-Lys-Arg-{AMC})" measured_result=127
compound="Cc1cc(=O)oc2cc(NC(=O)[C@H](CCCNC(=N)N)NC(=O)[C@H](CCCNC(=N)N)NC(=O)[C@H](CCC(N)=O)NC(=O)OC(C)(C)C)ccc12 [Boc--Gln--Arg--Arg--MCA, Boc-Gln-Arg-Arg-MCA] (Boc-Gln-Arg-Arg-{AMC})" measured_result=100
compound="Cc1cc(=O)oc2cc(NC(=O)[C@H](CCCNC(=N)N)NC(=O)[C@@H]3CCCN3C(=O)[C@H](CC(=O)OCc3ccccc3)NC(=O)OC(C)(C)C)ccc12 [Boc--Asp(OBzl)--Pro--Arg--MCA] (Boc-Asp(OBn)-Pro-Arg-{AMC})" measured_result=7.8
compound="Cc1cc(=O)oc2cc(NC(=O)[C@H](CCCNC(=N)N)NC(=O)[C@H](CCCCN)NC(=O)CNC(=O)OC(C)(C)C)ccc12 [Boc--Gly--Lys--Arg--MCA] (Boc-Gly-Lys-Arg-{AMC})" measured_result=123
compound="Cc1cc(=O)oc2cc(NC(=O)[C@H](CCCNC(=N)N)NC(=O)[C@@H](NC(=O)[C@H](CC(C)C)NC(=O)OC(C)(C)C)[C@@H](C)O)ccc12 [Boc--Leu--Thr--Arg--MCA] (Boc-Leu-Thr-Arg-{AMC})" measured_result=13.9
compound="Cc1cc(=O)oc2cc(NC(=O)[C@H](CCCCN)NC(=O)[C@H](CCCCN)NC(=O)[C@H](CCC(=O)O)NC(=O)OC(C)(C)C)ccc12 [Boc--Glu--Lys--Lys--MCA] (Boc-Glu-Lys-Lys-{AMC})" measured_result=0.9
compound="Cc1cc(=O)oc2cc(NC(=O)[C@H](CCCNC(=N)N)NC(=O)[C@@H](NC(=O)[C@H](CO)NC(=O)[C@H](CC(C)C)NC(=O)OC(C)(C)C)[C@@H](C)O)ccc12 [Boc--Leu--Ser--Thr--Arg--MCA] (Boc-LSTR-{AMC})" measured_result=97.0
compound="Cc1cc(=O)oc2cc(NC(=O)[C@H](CCCNC(=N)N)NC(=O)[C@@H]3CCCN3C(=O)CNC(=O)[C@H](C)NC(=O)OC(C)(C)C)ccc12 [Boc--Ala--Gly--Pro--Arg--MCA] (Boc-AGPR-{AMC})" measured_result=1.6
